Sourced from paper PMC10635799

assay: Whole-blood, brain and lung drug levels by LC-MS/MS in the sublethal LPS peritonitis model; type: in vivo; settings: both sexes, C57BL/6J, mouse, brain, intraperitoneal, 30 mg/kg i.p., VPC4 + LPS group, read-out: Mean brain concentration
recordedEndpoint: concentration at 4 h (µM)

| mol | measuredNumber |
| --- | --- |
| CCCCCCCCc1ccc([C@@H]2CC[C@@](N)(CO)C2)cc1 | 162 |

* * *

experiment: Whole-blood, brain and lung drug levels by LC-MS/MS in the sublethal LPS peritonitis model; type: in vivo; conditions: both sexes, C57BL/6J, mouse, brain, intraperitoneal, 30 mg/kg i.p., VPC4 group, read-out: Mean brain concentration
recordedEndpoint: concentration at 4 h (µM)

| compound | measuredNumber |
| --- | --- |
| CCCCCCCCc1ccc([C@@H]2CC[C@@](N)(CO)C2)cc1 [VPC01091.4] | 142 |

* * *

assay: Whole-blood, brain and lung drug levels by LC-MS/MS in the sublethal LPS peritonitis model; type: in vivo; conditions: both sexes, C57BL/6J, mouse, brain / whole blood, intraperitoneal, 30 mg/kg i.p., VPC4 + LPS group, read-out: Mean brain level relative to mean blood level
recordedEndpoint: Kp at 4 h

| compound | result |
| --- | --- |
| CCCCCCCCc1ccc([C@@H]2CC[C@@](N)(CO)C2)cc1 [VPC01091.4] | 9.35 |

* * *

assay: Whole-blood, brain and lung drug levels by LC-MS/MS in the sublethal LPS peritonitis model; format: in vivo; settings: both sexes, C57BL/6J, mouse, whole blood, intraperitoneal, 30 mg/kg i.p. with LPS 1 mg/kg, cotreatment group, read-out: Mean whole blood concentration
recordedEndpoint: concentration at 4 h (µM)

| mol | measuredNumber |
| --- | --- |
| CCCCCCCCc1ccc([C@@H]2CC[C@@](N)(CO)C2)cc1 | 17.4 |

* * *

molecular target: mouse TRPM7 (Mus musculus, UniProt Q923J1); construct: expressed in transfected cells; host or cells: HEK 293T cells (CRL-3216; ATCC), transient transfection with jetOPTIMUS, co-transfected eGFP as a separate plasmid; assay: Whole-cell patch clamp of TRPM7 current (IM7) in HEK 293T cells overexpressing mouse TRPM7; type: cell-based; conditions: peak current at +100 mV, HEK 293T overexpressing mouse TRPM7, Hill slope -1.0; read-out: IC50 for inhibition of TRPM7 current (IM7)
Sequence (Q923J1 whole entry): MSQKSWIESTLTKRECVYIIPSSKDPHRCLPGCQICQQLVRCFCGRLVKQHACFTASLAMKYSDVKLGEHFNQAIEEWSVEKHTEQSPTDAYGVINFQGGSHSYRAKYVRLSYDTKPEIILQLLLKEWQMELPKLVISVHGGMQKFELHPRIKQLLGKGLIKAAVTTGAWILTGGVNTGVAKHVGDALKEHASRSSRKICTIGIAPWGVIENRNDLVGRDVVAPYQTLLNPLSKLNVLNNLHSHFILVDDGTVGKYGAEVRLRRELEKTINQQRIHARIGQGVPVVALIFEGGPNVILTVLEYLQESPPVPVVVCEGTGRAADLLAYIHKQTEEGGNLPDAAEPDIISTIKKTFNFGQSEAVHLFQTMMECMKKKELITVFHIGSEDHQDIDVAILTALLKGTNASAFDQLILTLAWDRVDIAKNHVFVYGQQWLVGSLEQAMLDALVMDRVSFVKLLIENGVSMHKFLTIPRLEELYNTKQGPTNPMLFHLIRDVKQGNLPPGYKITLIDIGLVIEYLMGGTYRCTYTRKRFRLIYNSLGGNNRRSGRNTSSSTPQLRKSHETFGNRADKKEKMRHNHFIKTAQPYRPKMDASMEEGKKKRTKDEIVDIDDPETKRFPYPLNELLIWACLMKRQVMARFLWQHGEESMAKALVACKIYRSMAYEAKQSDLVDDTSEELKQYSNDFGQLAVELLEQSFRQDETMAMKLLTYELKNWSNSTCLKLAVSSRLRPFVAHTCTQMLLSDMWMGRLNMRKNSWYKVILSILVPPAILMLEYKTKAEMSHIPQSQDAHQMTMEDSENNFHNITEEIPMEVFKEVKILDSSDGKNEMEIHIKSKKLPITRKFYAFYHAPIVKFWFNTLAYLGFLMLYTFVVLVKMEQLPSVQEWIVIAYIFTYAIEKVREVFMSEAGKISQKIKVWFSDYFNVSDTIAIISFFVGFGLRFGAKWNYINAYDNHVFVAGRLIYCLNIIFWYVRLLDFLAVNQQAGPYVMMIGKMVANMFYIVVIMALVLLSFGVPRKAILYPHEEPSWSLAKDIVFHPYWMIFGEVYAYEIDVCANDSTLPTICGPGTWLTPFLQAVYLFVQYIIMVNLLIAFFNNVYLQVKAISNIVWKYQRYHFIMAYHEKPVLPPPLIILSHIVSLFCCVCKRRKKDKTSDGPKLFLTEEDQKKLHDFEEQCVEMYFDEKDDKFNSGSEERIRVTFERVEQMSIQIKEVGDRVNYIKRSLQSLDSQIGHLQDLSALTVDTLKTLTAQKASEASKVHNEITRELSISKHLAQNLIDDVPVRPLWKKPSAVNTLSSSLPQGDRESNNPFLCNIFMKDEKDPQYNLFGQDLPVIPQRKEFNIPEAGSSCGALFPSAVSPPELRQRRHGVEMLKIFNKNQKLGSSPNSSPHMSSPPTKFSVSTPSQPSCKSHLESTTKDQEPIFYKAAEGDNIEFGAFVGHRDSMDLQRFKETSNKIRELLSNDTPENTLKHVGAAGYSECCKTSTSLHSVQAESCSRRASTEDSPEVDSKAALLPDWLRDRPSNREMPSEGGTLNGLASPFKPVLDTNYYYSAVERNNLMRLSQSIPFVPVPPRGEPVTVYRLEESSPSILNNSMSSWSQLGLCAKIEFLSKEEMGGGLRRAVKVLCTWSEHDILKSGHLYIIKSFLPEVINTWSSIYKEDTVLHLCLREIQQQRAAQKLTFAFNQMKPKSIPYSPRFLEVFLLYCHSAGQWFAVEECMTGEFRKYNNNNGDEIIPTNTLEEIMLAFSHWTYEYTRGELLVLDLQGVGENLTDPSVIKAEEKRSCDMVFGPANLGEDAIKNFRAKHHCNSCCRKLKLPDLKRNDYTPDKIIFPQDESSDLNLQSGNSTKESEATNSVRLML
Measured IC50 by item

| compound | IC50 |
| --- | --- |
| CCCCCCCCCCCCC/C=C/[C@H](O)[C@@H](N)CO [L-threo-sphingosine, L-threo-(2S,3S)-sphingosine, reference compound] | 3.38 µM |
| CCCCCCCCc1ccc([C@@H]2CC[C@@](N)(CO)C2)cc1 [VPC01091.4] | 0.665 µM |

* * *

assay: Whole-blood, brain and lung drug levels by LC-MS/MS in the sublethal LPS peritonitis model; assay type: in vivo; conditions: both sexes, C57BL/6J, mouse, brain / whole blood, intraperitoneal, 30 mg/kg, 30 mg/kg i.p., VPC4 group, read-out: Mean brain level relative to mean blood level
recordedEndpoint: Kp at 4 h

| mol | measuredNumber |
| --- | --- |
| CCCCCCCCc1ccc([C@@H]2CC[C@@](N)(CO)C2)cc1 | 8.97 |

* * *

assay: Whole-blood, brain and lung drug levels by LC-MS/MS in the sublethal LPS peritonitis model; format: in vivo; details: both sexes, C57BL/6J, mouse, whole blood, intraperitoneal, 30 mg/kg i.p., drug-treated group, read-out: Mean whole blood concentration
recordedEndpoint: concentration at 4 h

| mol | recordedEndpoint | result |
| --- | --- | --- |
| CCCCCCCCc1ccc([C@@H]2CC[C@@](N)(CO)C2)cc1 | concentration at 4 h | 15.8 µM |
